Values from the supplement of paper PMC10037445

System: RAW-Dual
measurement-protocol: NF-kB SEAP reporter activity, fold change vs agonist alone; cytotoxicity flag (confluency mask): not cytotoxic; higher = enhanced NF-kB activity
condition-set: agonist: ODN 1826 (TLR9) 0.5 ug/mL
Over roughly 2,900 compounds, “NF-kB SEAP reporter activity, fold change vs agonist alone” has its median near 0.99; the highest 2% begin near 2.6. The sample holds the highest values, similar compounds and a random draw of the others, so the mix is not that of the screen.
measure: NF-kB SEAP reporter activity
A bare number is all that is needed in reply.

Ask | Give recorded NF-kB SEAP reporter activity with RAW-Dual for the following molecule: CC(C)(C)c1cc(C(=O)/C(C#N)=N/Nc2cccc(Cl)c2)no1 (library stock concentration (final ~1000-fold dilution): 10 mM)
Reply | 1.16

Ask | Give recorded NF-kB SEAP reporter activity with RAW-Dual for the following molecule: Cn1c(=O)cc(C(=O)Nc2ccc3c(c2)OCCO3)c2ccccc21 (library stock concentration (final ~1000-fold dilution): 10 mM)
Reply | 1.02

Ask | Give recorded NF-kB SEAP reporter activity with RAW-Dual for the following molecule: Cn1nc(C(C)(C)C)cc1C(=O)NC(Cc1cccc(Cl)c1)C(=O)NCC#N (stereo not drawn) (library stock concentration (final ~1000-fold dilution): 10 mM)
Reply | 1.14

---

Test system: RAW-Dual
measurement-protocol: NF-kB SEAP reporter activity, fold change vs agonist alone; cytotoxicity flag (confluency mask): not cytotoxic; higher = enhanced NF-kB activity
condition-set: agonist: Pam3CSK4 (TLR2/1) 0.1 ug/mL
Over roughly 2,900 compounds, “NF-kB SEAP reporter activity, fold change vs agonist alone” has its median near 0.99; the highest 2% begin near 2.6. The list comes from a sample in which the highest values are over-represented; it also holds close analogues and randomly drawn compounds.
Provide the reported NF-kB SEAP reporter activity of each item.

Ask | Give recorded NF-kB SEAP reporter activity with RAW-Dual for the following compound: CCCCNNC(=O)c1ccc(Br)cc1 (library stock concentration (final ~1000-fold dilution): 10 mM)
Reply | 0.656

Ask | Give recorded NF-kB SEAP reporter activity with RAW-Dual for the following compound: COc1cc(C(=O)N(CCCc2ccccc2)Cc2ccc(CC(=O)O)cc2)cc(OC)c1C (library stock concentration (final ~1000-fold dilution): 10 mM)
Reply | 0.908

Ask | Give recorded NF-kB SEAP reporter activity with RAW-Dual for the following compound: C=CC(=O)Nc1cccc(Oc2nc(Nc3ccc(N4CCN(C)CC4)cc3OC)ncc2Cl)c1 (library stock concentration (final ~1000-fold dilution): 10 mM)
Reply | 0.684

Ask | Give recorded NF-kB SEAP reporter activity with RAW-Dual for the following compound: Nc1nc(-c2ccco2)c2cnn(Cc3ccccc3F)c2n1 (library stock concentration (final ~1000-fold dilution): 10 mM)
Reply | 1.08

Ask | Give recorded NF-kB SEAP reporter activity with RAW-Dual for the following compound: CN1C(=N)NC(C)(c2cc(NC(=O)c3ccc(F)cn3)ccc2F)CS1(=O)=O (stereo unspecified) (library stock concentration (final ~1000-fold dilution): 10 mM)
Reply | 0.657

Ask | Give recorded NF-kB SEAP reporter activity with RAW-Dual for the following compound: O=C(NO)c1ccc(CC(=O)N(CCO)c2ccccc2)cc1 (library stock concentration (final ~1000-fold dilution): 10 mM)
Reply | 1.21

---

System: RAW-Dual
measurement-protocol: NF-kB SEAP reporter activity, fold change vs agonist alone; cytotoxicity flag (confluency mask): not cytotoxic; higher = enhanced NF-kB activity
condition-set: agonist: Pam2CSK4 (TLR2/6) 0.1 ug/mL
In all, about 2,900 compounds were measured (“NF-kB SEAP reporter activity, fold change vs agonist alone”: median about 0.99, highest 2% from about 2.6 on). What follows is part of a selection rich in the highest values, with near analogues and random picks from the rest.
Classification field: enter true for NF-kB SEAP reporter activity values not below 0.9, false for values below it.

Ask | Evaluate COC12C(COC(N)=O)C3=C(C(=O)C(C)=C(N)C3=O)N1CC1NC12 (configuration not stated) (library stock concentration (final ~1000-fold dilution): 10 mM) : NF-kB SEAP reporter activity at minimum 0.9?
Reply | true

Ask | Evaluate O=C(NCCN1CCOCC1)c1ccc(Cl)cc1 (library stock concentration (final ~1000-fold dilution): 10 mM) : NF-kB SEAP reporter activity at minimum 0.9?
Reply | true

Ask | Evaluate Nc1ccn(C2CSC(CO)O2)c(=O)n1 (configuration not stated) (library stock concentration (final ~1000-fold dilution): 10 mM) : NF-kB SEAP reporter activity at minimum 0.9?
Reply | true

Ask | Evaluate CCO.N#CC(=C(\N)Sc1ccccc1N)/C(C#N)=C(/N)Sc1ccccc1N (library stock concentration (final ~1000-fold dilution): 10 mM) : NF-kB SEAP reporter activity at minimum 0.9?
Reply | false

Ask | Evaluate Cc1ccc(-n2nc(C(C)(C)C)cc2NC(=O)Nc2ccc(OCCN3CCOCC3)c3ccccc23)cc1 (library stock concentration (final ~1000-fold dilution): 10 mM) : NF-kB SEAP reporter activity at minimum 0.9?
Reply | false

Ask | Evaluate CCCOc1ccc(CCc2nc3cc(-c4c(C)noc4C)ccc3n2CCN2CCOCC2)cc1.Cl (library stock concentration (final ~1000-fold dilution): 10 mM) : NF-kB SEAP reporter activity at minimum 0.9?
Reply | false

Ask | Evaluate O=C(Cc1ccc(-c2ccc(OCCN3CCOCC3)cc2)cn1)NCc1ccccc1 (library stock concentration (final ~1000-fold dilution): 10 mM) : NF-kB SEAP reporter activity at minimum 0.9?
Reply | true

Ask | Evaluate COC(=O)Nc1ccc(-c2nc(N3CCOCC3)c3cnn(C4CCN(C(=O)OC)CC4)c3n2)cc1 (library stock concentration (final ~1000-fold dilution): 10 mM) : NF-kB SEAP reporter activity at minimum 0.9?
Reply | false

Ask | Evaluate Cc1cccc(Nc2nc(-c3ccncc3)cs2)c1 (library stock concentration (final ~1000-fold dilution): 10 mM) : NF-kB SEAP reporter activity at minimum 0.9?
Reply | false

Ask | Evaluate COc1ccc(CCc2nc3cc(-c4c(C)noc4C)ccc3n2CC(C)N2CCOCC2)cc1Cl (configuration not stated) (library stock concentration (final ~1000-fold dilution): 10 mM) : NF-kB SEAP reporter activity at minimum 0.9?
Reply | true

Ask | Evaluate CC(C)(C)N.CCCC(NC(C)C(=O)N1C(C(=O)O)CC2CCCCC21)C(=O)OCC (configuration not stated) (library stock concentration (final ~1000-fold dilution): 10 mM water) : NF-kB SEAP reporter activity at minimum 0.9?
Reply | true
